Origin of measurements: PubChem BioAssay (EPA / NIEHS)

Method summary: STM_H9_CystineISnorm_perc: Stemina devTOX quickPredict H9 human embryonic stem cell (hESC)-based Assay for Cystine (CYSS) Metabolite Biomarker, Normalized (AID 2283713)
Description: STM_H9_secretome utilizes undifferentiated H9 cells to measure relative changes in two metabolites, ornithine (ORN) and cystine (CYSS) in the secretome, targeting a critical drop in the ORN/CYSS ratio as a biomarker for developmental toxicity.STM_H9_CystineISnorm_perc is one of 10 components calculated in the STM_H9_secretome assay. […]
Calls of active or inactive are those of the source. Rule for the calls: active = hit-call score of the fitted dose curve at least 0.9, where 1 is the maximum; inactive = score below 0.9.
API: response.call in active, inactive

I would be grateful if you could indicate the recorded call for CCC(=NOC/C=C/Cl)C1=C(O)CC(C2CCOCC2)CC1=O (centres undefined) .
inactive

Could you do the same for "CSc1nc(NC(C)C)nc(NC(C)C)n1" , please?
active

Could you do the same for "Cc1ccn2nc(S(=O)(=O)Nc3c(F)cccc3F)nc2n1" , please?
inactive

Could you do the same for "CC1=NNC(=O)N(/N=C/c2cccnc2)C1" , please?
inactive

Could you do the same for "CCCCOC(=O)[C@@H](C)Oc1ccc(Oc2ccc(C#N)cc2F)cc1" , please?
active

Could you do the same for "N#CSCSC#N" , please?
active

Could you do the same for "C[N+]1(C)CCCCC1" , please?
inactive

Could you do the same for "Cc1nn(-c2cc(NS(C)(=O)=O)c(Cl)cc2Cl)c(=O)n1C(F)F" , please?
inactive

Could you do the same for CC(COc1ccc(Oc2ccccc2)cc1)Oc1ccccn1 (centres undefined) , please?
active

Could you do the same for "CSc1nnc(C(C)(C)C)c(=O)n1N" , please?
inactive

Could you do the same for "CCOP(=S)(OCC)Oc1cc(C)nc(C(C)C)n1" , please?
active

Could you do the same for "O=[N+]([O-])c1cc(C(F)(F)F)c(Cl)c([N+](=O)[O-])c1Nc1ncc(C(F)(F)F)cc1Cl" , please?
active

Could you do the same for CC(C1CC1)C(O)(Cn1cncn1)c1ccc(Cl)cc1 (centres undefined) , please?
active

Could you do the same for "CC(C)N(C(=O)SCC(Cl)=C(Cl)Cl)C(C)C" , please?
active
